Data credit: ChEMBL document CHEMBL4339243

- Target Desc: 3',5'-cyclic-AMP phosphodiesterase 4D (Homo sapiens)
- Sequence (Q08499 whole entry, the tested form may be a part): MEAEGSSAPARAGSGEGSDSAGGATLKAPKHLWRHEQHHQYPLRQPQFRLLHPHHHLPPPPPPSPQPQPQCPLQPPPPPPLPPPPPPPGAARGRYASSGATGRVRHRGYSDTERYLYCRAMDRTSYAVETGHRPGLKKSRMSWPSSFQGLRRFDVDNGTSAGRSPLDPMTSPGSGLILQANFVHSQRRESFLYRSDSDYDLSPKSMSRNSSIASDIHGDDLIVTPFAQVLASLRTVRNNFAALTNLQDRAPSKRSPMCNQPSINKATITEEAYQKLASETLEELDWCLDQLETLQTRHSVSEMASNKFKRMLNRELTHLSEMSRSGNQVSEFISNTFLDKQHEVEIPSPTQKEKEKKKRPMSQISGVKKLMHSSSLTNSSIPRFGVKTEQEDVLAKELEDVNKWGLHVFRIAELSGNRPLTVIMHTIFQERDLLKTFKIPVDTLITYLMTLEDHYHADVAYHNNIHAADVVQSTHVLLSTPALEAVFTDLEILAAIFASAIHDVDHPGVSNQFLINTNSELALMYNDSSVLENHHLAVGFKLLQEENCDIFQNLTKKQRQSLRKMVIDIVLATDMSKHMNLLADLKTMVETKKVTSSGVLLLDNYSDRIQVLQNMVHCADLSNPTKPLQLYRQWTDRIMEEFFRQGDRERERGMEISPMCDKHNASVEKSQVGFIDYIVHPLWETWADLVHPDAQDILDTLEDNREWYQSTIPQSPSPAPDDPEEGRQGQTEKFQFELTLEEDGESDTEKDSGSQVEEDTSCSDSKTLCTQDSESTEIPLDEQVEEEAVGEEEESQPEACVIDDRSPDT
- Procedure Details: Inhibition of human PDE4D2 catalytic domain (86 to 413 residues) expressed in Escherichia coli strain BL21 using [3H]cAMP as substrate after 15 mins by liquid scintillation counter analysis
Test Readout: IC50 (nM)

>  <Item Smiles>
COc1ccc(C2(c3ccc(OC)cc3)c3cc(O)ccc3-c3ccc(C=O)c(C#Cc4ccc(O)cc4)c32)cc1

>  <Test Readout>
IC50

>  <Obs Value>
10

$$$$

1 = OCc1ccc2c(c1C#Cc1ccc(O)cc1)C(c1ccc(O)cc1)(c1ccc(O)cc1)c1cc(O)ccc1-2
2 = COc1ccc(C2(c3ccc(OC)cc3)c3cc(O)ccc3-c3cccc(C#Cc4ccc(O)cc4)c32)cc1
Problem: Between 1 and 2 , whose recorded IC50 is greater? Answer by quoting the chosen item's label.
Solution: 1
